From: patent US20230272055A1

Molecular target: T1, Recombinant MBP-mutCALR Type 1 fusion protein (human)
T1 construct: custom made at Cepter; also called recombinant mutCALR protein
Assay: SPR, IgG captured, 1:1 fit, Exp. 1
Measured Property: koff (s⁻¹)
Use s⁻¹ as the unit, but write only the number.

Binder	Measured Property	Unit Annotation	Value
anti-mutCALR antibody clone 9 (antibody, human IgG1, lambda, V domains shown, human IgG1) VH: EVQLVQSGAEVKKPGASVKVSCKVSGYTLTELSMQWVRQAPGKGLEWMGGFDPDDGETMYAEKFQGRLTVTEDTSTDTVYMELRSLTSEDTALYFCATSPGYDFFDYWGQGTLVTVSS VL: SYVLTQPPSVSVAPGQTARIPCGGNNIGSKSVHWYQQKPGQAPVLVVYDDRDRPSGIPERFSGSNSGNTATLTINRVEAGDEADYYCQVWDSSNDLLIFGGGTKLTVLG	koff	s⁻¹	0.00904

Quick note, koff for anti-mutCALR antibody clone 16 (antibody, human IgG1, lambda, V domains shown, human IgG1) VH: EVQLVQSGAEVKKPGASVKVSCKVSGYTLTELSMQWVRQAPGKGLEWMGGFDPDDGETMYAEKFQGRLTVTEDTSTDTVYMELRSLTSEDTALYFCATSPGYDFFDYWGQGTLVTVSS VL: SYVLTQPPSVSVAPGKTARITCGGNNTGSKSVHWYQQKPGQAPVLVVYDDSDRPSGIPERFSGSNSGNTATLTINRVEAGDEADYYCQVWDSSNDLLIFGGGTKLTVLG landed at 0.0354
